tested on: ragweed (common ragweed, Ambrosia artemisiifolia); experiment: Test A preemergence soil spray, visual injury rating 0-100; assay type: in vivo; conditions: 31 g ai/ha, 10 days, 0 = no effect, 100 = complete control
RECORDED_METRIC: Ragweed plant response rating (0-100)
// keep it numeric: no unit symbol after the value

>  <MOLECULE>
CC(C)COC(=O)C1=CCC(NC(=O)C2(C)CN(c3cc(F)cc(F)c3)C(=O)O2)C1 (centres unmarked) [Compound 16]

>  <EXPERIMENTAL_TARGET>
ragweed (common ragweed, Ambrosia artemisiifolia)

>  <Ragweed plant response rating (0-100)>
0

$$$$
>  <MOLECULE>
CCOC(=O)C1=CCC(NC(=O)C2(C)CN(c3cc(Cl)cc(Cl)c3)C(=O)O2)C1 (centres unmarked) [Compound 60]

>  <EXPERIMENTAL_TARGET>
ragweed (common ragweed, Ambrosia artemisiifolia)

>  <Ragweed plant response rating (0-100)>
30

$$$$

(Q) ragweed (common ragweed, Ambrosia artemisiifolia) / Ragweed plant response rating (0-100) / CSCCOC(=O)C1C=CC(NC(=O)C2(C)CN(c3cc(Cl)cc(Cl)c3)C(=O)O2)C1 (centres unmarked) [Compound 69] : value?
(A) 0

(Q) ragweed (common ragweed, Ambrosia artemisiifolia) / Ragweed plant response rating (0-100) / CC1(C(=O)NC2C=CC(C(=O)OCc3ccc(F)cc3)C2)CN(c2cc(F)cc(F)c2)C(=O)O1 (centres unmarked) [Compound 54] : value?
(A) 0

----------
system: green foxtail (Setaria viridis); experiment: Test A preemergence soil spray, visual injury rating 0-100; format: in vivo; settings: 62 g ai/ha, 10 days, 0 = no effect, 100 = complete control
RECORDED_METRIC: Foxtail, Green plant response rating (0-100)
// keep it numeric: no unit symbol after the value

Sample records with Foxtail, Green plant response rating (0-100):
>  <COMPOUND>
CC1(C(=O)NC2CC=C(C(=O)O)C2)CN(c2cc(F)cc(F)c2)C(=O)O1 (centres unmarked)

>  <EXPERIMENTAL_TARGET>
green foxtail (Setaria viridis)

>  <READING>
90

$$$$
>  <COMPOUND>
COC(=O)C1CC(NC(=O)C2(C)CN(c3cc(F)cc(F)c3)C(=O)O2)C1 (centres unmarked)

>  <EXPERIMENTAL_TARGET>
green foxtail (Setaria viridis)

>  <READING>
90

$$$$
>  <COMPOUND>
CC(C)OC(=O)C1=CCC(NC(=O)C2(C)CN(c3cc(Cl)cc(Cl)c3)C(=O)O2)C1 (centres unmarked)

>  <EXPERIMENTAL_TARGET>
green foxtail (Setaria viridis)

>  <READING>
0

$$$$
>  <COMPOUND>
COC(=O)C1=CCC(NC(=O)C2(C)CN(c3cc(Cl)c(F)c(Cl)c3)C(=O)O2)C1 (centres unmarked)

>  <EXPERIMENTAL_TARGET>
green foxtail (Setaria viridis)

>  <READING>
0

$$$$

(Q) // lookup Foxtail, Green plant response rating (0-100) for CC1(C(=O)NC2CC=C(C(=O)OCC(F)F)C2)CN(c2cc(F)cc(F)c2)C(=O)O1 (centres unmarked)
(A) 100

(Q) // lookup Foxtail, Green plant response rating (0-100) for C=CC1(C(=O)NC2CC(C(=O)OC)C2)CN(c2cc(F)cc(F)c2)C(=O)O1 (centres unmarked)
(A) 0

(Q) // lookup Foxtail, Green plant response rating (0-100) for COC(=O)COC(=O)C1=CCC(NC(=O)C2(C)CN(c3cc(Cl)cc(Cl)c3)C(=O)O2)C1 (centres unmarked) [Compound 110]
(A) 90

(Q) // lookup Foxtail, Green plant response rating (0-100) for COC(=O)C1=CCC(NC(=O)C2(C)CN(c3cc(F)cc(Cl)c3)C(=O)O2)C1 (centres unmarked)
(A) 90

----------
test system: wheat (Triticum aestivum); test: Test A postemergence application, visual injury rating 0-100; assay type: in vivo; conditions: 62 g ai/ha, postemergence, 10 days, 0 = no effect, 100 = complete control
Entries and their measured Wheat plant response rating (0-100) follow.
// keep it numeric: no unit symbol after the value

Sample records with Wheat plant response rating (0-100):
>  <MOLECULE>
COC(=O)C1C=CC(NC(=O)C2(C)CN(c3cc(F)cc(F)c3)C(=O)O2)C1 (stereo not drawn)

>  <RECORDED_METRIC>
Wheat plant response rating (0-100)

>  <READING>
0

$$$$
>  <MOLECULE>
CC1(C(=O)NC2CC=C(C(=O)OCC(F)(F)F)C2)CN(c2cc(F)cc(Cl)c2)C(=O)O1 (stereo not drawn)

>  <RECORDED_METRIC>
Wheat plant response rating (0-100)

>  <READING>
90

$$$$
>  <MOLECULE>
COC(=O)C1CC(NC(=O)C2(C)CN(c3cc(F)cc(Cl)c3)C(=O)O2)C1 (stereo not drawn)

>  <RECORDED_METRIC>
Wheat plant response rating (0-100)

>  <READING>
90

$$$$
>  <MOLECULE>
CC1(C(=O)NC2CC=C(C(=O)O)C2)CN(c2cc(F)cc(Cl)c2)C(=O)O1 (stereo not drawn)

>  <RECORDED_METRIC>
Wheat plant response rating (0-100)

>  <READING>
0

$$$$
>  <MOLECULE>
CCOC(=O)C1=CCC(NC(=O)C2(C)CN(c3cc(F)cc(F)c3)C(=O)O2)C1 (stereo not drawn) [Compound 111]

>  <RECORDED_METRIC>
Wheat plant response rating (0-100)

>  <READING>
20

$$$$

(Q) wheat (Triticum aestivum) / Wheat plant response rating (0-100) / COC(=O)C1C=CC(NC(=O)C2(C)CN(c3cccc(OC(F)(F)F)c3)C(=O)O2)C1 (mixture of isomers) : value?
(A) 80

----------
system: galium (catchweed bedstraw, Galium aparine); assay: Test A postemergence application, visual injury rating 0-100; format: in vivo; settings: Postemergence, 125 g ai/ha, 10 days; 0 is no effect, 100 is complete control
Entries and their measured Galium plant response rating (0 to 100 scale) follow.
// keep it numeric: no unit symbol after the value

Sample records with Galium plant response rating (0 to 100 scale):
>  <COMPOUND>
CCOC(=O)C1CC(NC(=O)C2(C)CN(c3cc(F)cc(F)c3)C(=O)O2)CO1 (centres unmarked)

>  <READING>
70

$$$$
>  <COMPOUND>
CCOC(=O)C1=CCC(NC(=O)C2(C)CN(c3cc(Cl)cc(Cl)c3)C(=O)O2)C1 (centres unmarked)

>  <READING>
90

$$$$
>  <COMPOUND>
CC1(C(=O)NC2C=CC(C(=O)NS(=O)(=O)C3CC3)C2)CN(c2cc(Cl)cc(Cl)c2)C(=O)O1 (centres unmarked)

>  <READING>
80

$$$$
>  <COMPOUND>
CC1(C(=O)NC2C=CC(C(=O)OC3CCCC3)C2)CN(c2cc(Cl)cc(Cl)c2)C(=O)O1 (centres unmarked)

>  <READING>
90

$$$$
>  <COMPOUND>
CCS(=O)(=O)NC(=O)C1C=CC(NC(=O)C2(C)CN(c3cc(Cl)cc(Cl)c3)C(=O)O2)C1 (centres unmarked)

>  <READING>
80

$$$$

(Q) // lookup Galium plant response rating (0 to 100 scale) for CCOC(=O)C1CCC(NC(=O)C2(C)CN(c3cc(F)cc(Cl)c3)C(=O)O2)C1 (centres unmarked)
(A) 80

(Q) // lookup Galium plant response rating (0 to 100 scale) for CC(C)OC(=O)C1CCC(NC(=O)C2(C)CN(c3cc(F)cc(Cl)c3)C(=O)O2)C1 (centres unmarked)
(A) 90

(Q) // lookup Galium plant response rating (0 to 100 scale) for CSCCOC(=O)C1C=CC(NC(=O)C2(C)CN(c3cc(Cl)cc(Cl)c3)C(=O)O2)C1 (centres unmarked)
(A) 70

----------
tested on: rice (Oryza sativa); test: Test B flooded paddy test, visual plant response rating 0-100; type: in vivo; settings: 250 g ai/ha, Flood, applied to paddy water, evaluated after 13 days
Cut-off 80 on Plant response rating, Rice (0 to 100 scale, 0 is no effect and 100 is complete control), inclusive. At or above means label 1; below means label 0.

Recorded results for 10 molecules are shown here.
>  <MOLECULE>
C=CC1(C(=O)NC2C=CC(C(=O)OC)C2)CN(c2cc(F)cc(F)c2)C(=O)O1 (single isomer, unassigned)

>  <EXPERIMENTAL_TARGET>
rice (Oryza sativa)

>  <LABEL_CLASS>
label 1

$$$$
>  <MOLECULE>
CCOC(=O)C1=CCC(NC(=O)C2(C)CN(c3cc(F)cc(Cl)c3)C(=O)O2)C1 (stereo not drawn)

>  <EXPERIMENTAL_TARGET>
rice (Oryza sativa)

>  <LABEL_CLASS>
label 1

$$$$
>  <MOLECULE>
CCOC(=O)C1=CCC(NC(=O)C2(C)CN(c3cc(F)cc(F)c3)C(=O)O2)C1 (stereo not drawn)

>  <EXPERIMENTAL_TARGET>
rice (Oryza sativa)

>  <LABEL_CLASS>
label 1

$$$$
>  <MOLECULE>
CC1(C(=O)NC2CC=C(C(=O)OCC(F)(F)F)C2)CN(c2cc(F)cc(F)c2)C(=O)O1 (single isomer, unassigned) [Compound 24]

>  <EXPERIMENTAL_TARGET>
rice (Oryza sativa)

>  <LABEL_CLASS>
label 0

$$$$
>  <MOLECULE>
COC(=O)[C@H]1C[C@@H](NC(=O)C2(C)CN(c3cc(F)cc(F)c3)C(=O)O2)[C@H]2C[C@H]21 (stereo partly drawn)

>  <EXPERIMENTAL_TARGET>
rice (Oryza sativa)

>  <LABEL_CLASS>
label 0

$$$$
>  <MOLECULE>
COC(=O)[C@@H]1C=C[C@H](NC(=O)C2(C)CN(c3cc(F)cc(F)c3)C(=O)O2)C1 (stereo partly drawn)

>  <EXPERIMENTAL_TARGET>
rice (Oryza sativa)

>  <LABEL_CLASS>
label 0

$$$$
>  <MOLECULE>
CC1(C(=O)NC2C=CC(C(=O)O)C2)CN(c2cc(F)cc(F)c2)C(=O)O1 (stereo not drawn)

>  <EXPERIMENTAL_TARGET>
rice (Oryza sativa)

>  <LABEL_CLASS>
label 1

$$$$
>  <MOLECULE>
CSCCOC(=O)C1=CCC(NC(=O)C2(C)CN(c3cc(F)cc(F)c3)C(=O)O2)C1 (stereo not drawn)

>  <EXPERIMENTAL_TARGET>
rice (Oryza sativa)

>  <LABEL_CLASS>
label 0

$$$$
>  <MOLECULE>
COC(=O)C1CC(NC(=O)C2(C)CN(c3cc(F)cc(Cl)c3)C(=O)O2)C1 (stereo not drawn)

>  <EXPERIMENTAL_TARGET>
rice (Oryza sativa)

>  <LABEL_CLASS>
label 0

$$$$
>  <MOLECULE>
CC(C)OC(=O)C1C=CC(NC(=O)C2(C)CN(c3cc(F)cc(F)c3)C(=O)O2)C1 (stereo not drawn)

>  <EXPERIMENTAL_TARGET>
rice (Oryza sativa)

>  <LABEL_CLASS>
label 0

$$$$

(Q) Say whether COC(=O)C1C=CC(NC(=O)C2(C)CN(c3cc(F)cc(F)c3)C(=O)O2)C1 (mixture of isomers) shows Plant response rating, Rice (0 to 100 scale, 0 is no effect and 100 is complete control) of 80 or more.
(A) label 1

(Q) Say whether COC(=O)C1=CC[C@H](NC(=O)C2(C)CN(c3cc(F)cc(F)c3)C(=O)O2)C1 (mixture of isomers) shows Plant response rating, Rice (0 to 100 scale, 0 is no effect and 100 is complete control) of 80 or more.
(A) label 0

(Q) Say whether C=CC1(C(=O)NC2CC=C(C(=O)OC)C2)CN(c2cc(F)cc(F)c2)C(=O)O1 (racemic) shows Plant response rating, Rice (0 to 100 scale, 0 is no effect and 100 is complete control) of 80 or more.
(A) label 1

(Q) Say whether CC1(C(=O)NC2CC=C(C(=O)OCC(F)(F)F)C2)CN(c2cc(F)cc(Cl)c2)C(=O)O1 (stereo not drawn) shows Plant response rating, Rice (0 to 100 scale, 0 is no effect and 100 is complete control) of 80 or more.
(A) label 0

(Q) Say whether COC(=O)C1=CCC(NC(=O)C2(C)CN(c3cc(Cl)cc(Cl)c3)C(=O)O2)C1 (stereo not drawn) shows Plant response rating, Rice (0 to 100 scale, 0 is no effect and 100 is complete control) of 80 or more.
(A) label 0

(Q) Say whether COC(=O)C1CC(NC(=O)C2(C)CN(c3cc(F)cc(F)c3)C(=O)O2)C1 (stereo not drawn) shows Plant response rating, Rice (0 to 100 scale, 0 is no effect and 100 is complete control) of 80 or more.
(A) label 0

(Q) Say whether CC(C)OC(=O)C1=CCC(NC(=O)C2(C)CN(c3cc(Cl)cc(Cl)c3)C(=O)O2)C1 (stereo not drawn) [Compound 70] shows Plant response rating, Rice (0 to 100 scale, 0 is no effect and 100 is complete control) of 80 or more.
(A) label 0

(Q) Say whether C=CC1(C(=O)NC2CC(C(=O)OC)C2)CN(c2cc(F)cc(F)c2)C(=O)O1 (stereo not drawn) [Compound 172] shows Plant response rating, Rice (0 to 100 scale, 0 is no effect and 100 is complete control) of 80 or more.
(A) label 0
